Assay: Example 8: Day 5 pharmacokinetics of racemic ranolazine and enantiomers, SR 1500 and 2000 mg bid
Type: in vivo, human
Conditions: male, human, plasma, oral; Day 5, 1500 mg SR bid (racemic, Example 2D); read-out: AUC96-108h
MEASURE: AUC (ng·h/mL)
Expressed in ng·h/mL, but write only the number.

Reference set (2 entries):
Input: Bench note: what AUC did COc1ccccc1OC[C@@H](O)CN1CCN(CC(=O)Nc2c(C)cccc2C)CC1 [(−)S ranolazine] show?
Output: 26400

Input: Bench note: what AUC did COc1ccccc1OCC(O)CN1CCN(CC(=O)Nc2c(C)cccc2C)CC1 (racemic) show?
Output: 49500

From here, focus on the item given below.
Input: Bench note: what AUC did COc1ccccc1OC[C@H](O)CN1CCN(CC(=O)Nc2c(C)cccc2C)CC1 [(+)R ranolazine] show?
Output: 25700
